TARGET_OF_ASSAY: human ProRS (prolyl tRNA synthetase moiety of glutamyl prolyl tRNA synthetase, EPRS) (Homo sapiens)
Construct: The prolyl tRNA synthetase moiety (ProRS) in the cDNA of glutamyl prolyl tRNA synthetase was subcloned; 6xHis (N, cleaved yes); made in house; host or cells: E. coli BL21 (DE3)
PROTOCOL_TEXT: Assay for inhibitors of prolyl tRNA synthetase activity (ProRS assay, labeled proline incorporation)
Type: biochemical
SETTINGS: human ProRS 20 nM, 10 min at 37° C.; read-out: EPRS IC50
Where a name gives a salt, the structure may show the parent alone.
Entries and their measured pIC50 follow.
Scale for pIC50: -log10 of concentration given in mol/L; no unit attached.

| COMPOUND | pIC50 |
| --- | --- |
| Cc1cc(C(F)(F)F)cc2c(=O)n(C[C@@H](O)C[C@H]3NCCC[C@@H]3O)cnc12 [Example 44, hydrochloride] | 7.70 |
| O=c1c2cc(-c3cccc(F)c3)ccc2ncn1C[C@@H](O)C[C@H]1NCCC[C@@H]1O [Example 50, hydrochloride] | 7.85 |
| Cc1cc(C)c2ncn(C[C@@H](O)C[C@H]3NCCC[C@@H]3O)c(=O)c2c1 [Example 39, hydrochloride] | 6.80 |

// query pIC50 value for entry O=C(C[C@H]1NCCC[C@@H]1O)Cn1cnc2cccc(C(F)(F)F)c2c1=O [Example 25, hydrochloride]
8.00

---

Catalogue of pIC50 readings, one per entry.
TARGET_OF_ASSAY: human ProRS (prolyl tRNA synthetase moiety of glutamyl prolyl tRNA synthetase, EPRS) (Homo sapiens, UniProt P07814)
Construct: The prolyl tRNA synthetase moiety (ProRS) in the cDNA of glutamyl prolyl tRNA synthetase was subcloned; 6xHis (N, cleaved yes); made in house; host or cells: E. coli BL21 (DE3)
Sequence (P07814 1007-1512 limits assumed): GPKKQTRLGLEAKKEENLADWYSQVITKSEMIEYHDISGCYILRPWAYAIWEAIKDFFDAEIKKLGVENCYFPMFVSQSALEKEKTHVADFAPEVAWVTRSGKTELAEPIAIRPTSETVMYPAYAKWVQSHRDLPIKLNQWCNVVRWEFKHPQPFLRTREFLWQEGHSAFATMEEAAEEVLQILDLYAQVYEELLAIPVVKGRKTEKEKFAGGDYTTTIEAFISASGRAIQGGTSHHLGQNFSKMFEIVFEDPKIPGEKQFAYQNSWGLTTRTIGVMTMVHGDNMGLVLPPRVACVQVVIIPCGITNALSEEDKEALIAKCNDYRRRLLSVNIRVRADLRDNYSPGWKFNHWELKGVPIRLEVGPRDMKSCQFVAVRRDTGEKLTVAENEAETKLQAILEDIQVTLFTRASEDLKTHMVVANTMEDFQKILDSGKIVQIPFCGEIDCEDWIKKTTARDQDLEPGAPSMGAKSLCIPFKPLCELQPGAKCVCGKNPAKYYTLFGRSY
PROTOCOL_TEXT: Assay for inhibitors of prolyl tRNA synthetase activity (ProRS assay, labeled proline incorporation)
Type: biochemical
SETTINGS: human ProRS 20 nM, 10 min at 37° C.; read-out: EPRS IC50
Where a name gives a salt, the structure may show the parent alone.
The read-out pIC50 is expressed as -log10 of concentration in moles per litre.

Sample records with pIC50:
| COMPOUND | REPORTED_MEASUREMENT |
| --- | --- |
| Cc1cc(-c2cccc(F)c2)cc2c(=O)n(CC(=O)C[C@H]3NCCC[C@@H]3O)cnc12 [Example 19, hydrochloride] | 8.05 |
| Cc1c(Cl)ccc2c(=O)n(CC(=O)C[C@H]3NCCC[C@@H]3O)cnc12 [Example 2, hydrochloride] | 7.82 |
| Cc1cc(OC(F)(F)F)cc2c(=O)n(CC(=O)C[C@H]3NCCC[C@@H]3O)cnc12 [Example 7, hydrochloride] | 8.05 |

Which value of pIC50 has been reported for O=C(C[C@H]1NCCC[C@@H]1O)Cn1cnc2ccc(-c3cccc(C(F)(F)F)c3)cc2c1=O [Example 18, hydrochloride] in the records?
7.40

---

IC50 for assorted compounds
TARGET_OF_ASSAY: human ProRS (prolyl tRNA synthetase moiety of glutamyl prolyl tRNA synthetase, EPRS) (Homo sapiens)
Construct: The prolyl tRNA synthetase moiety (ProRS) in the cDNA of glutamyl prolyl tRNA synthetase was subcloned; 6xHis (N, cleaved yes); made in house; host or cells: E. coli BL21 (DE3)
Sequence (P07814 1007-1512 limits assumed): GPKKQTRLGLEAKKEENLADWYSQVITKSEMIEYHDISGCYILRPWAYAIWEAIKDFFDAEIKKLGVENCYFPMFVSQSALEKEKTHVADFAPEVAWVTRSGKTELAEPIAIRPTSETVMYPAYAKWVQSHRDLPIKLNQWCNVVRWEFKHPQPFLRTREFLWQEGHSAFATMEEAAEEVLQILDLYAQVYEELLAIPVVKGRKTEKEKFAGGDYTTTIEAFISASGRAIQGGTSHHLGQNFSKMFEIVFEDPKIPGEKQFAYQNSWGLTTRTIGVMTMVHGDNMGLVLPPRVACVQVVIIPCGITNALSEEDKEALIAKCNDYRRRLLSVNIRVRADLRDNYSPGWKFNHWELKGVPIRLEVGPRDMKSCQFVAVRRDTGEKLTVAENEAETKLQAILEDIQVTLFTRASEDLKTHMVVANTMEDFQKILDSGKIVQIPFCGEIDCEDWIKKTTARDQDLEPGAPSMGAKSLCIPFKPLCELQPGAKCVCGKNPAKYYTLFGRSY
PROTOCOL_TEXT: Assay for inhibitors of prolyl tRNA synthetase activity (ProRS assay, labeled proline incorporation)
Format: biochemical
SETTINGS: human ProRS 20 nM, 10 min at 37° C.; read-out: EPRS IC50
Where a name gives a salt, the structure may show the parent alone.

| COMPOUND | REPORTED_MEASUREMENT |
| --- | --- |
| Cc1cc(S(C)(=O)=O)cc2c(=O)n(CC(=O)C[C@H]3NCCC[C@@H]3O)cnc12 [Example 8, hydrochloride] | 9 nM |

Item Cc1cc2ncn(C[C@@H](O)C[C@H]3NCCC[C@@H]3O)c(=O)c2cc1F.Cl [Example 32, hydrochloride] has what recorded IC50?
55 nM

Look up IC50 for this compound: O=C(C[C@H]1NCCC[C@@H]1O)Cn1cnc2cccc(-c3ccc(F)c(F)c3)c2c1=O [Example 27, hydrochloride]
6 nM

May I ask what IC50 has been recorded for Cc1cc(C#N)cc2c(=O)n(CC(=O)C[C@H]3NCCC[C@@H]3O)cnc12 [Example 12, hydrochloride] ?
17 nM

Return reported IC50; argument: COC(=O)N1CCC[C@H](O)[C@H]1C[C@H](O)Cn1cnc2c(C)cc(Cl)cc2c1=O
> 10000 nM

Recorded IC50 of Cc1cc(C(C)C)cc2c(=O)n(CC(=O)C[C@H]3NCCC[C@@H]3O)cnc12 [Example 10, hydrochloride] , please.
6 nM

# IC50 lookup, item Cc1cc(Br)cc2c(=O)n(CC(=O)C[C@H]3NCCC[C@@H]3O)cnc12.Cl [Example 3, hydrochloride]
4 nM

---

Reported pIC50 values follow for various molecules
TARGET_OF_ASSAY: human ProRS (prolyl tRNA synthetase moiety of glutamyl prolyl tRNA synthetase, EPRS) (Homo sapiens, UniProt P07814)
Construct: The prolyl tRNA synthetase moiety (ProRS) in the cDNA of glutamyl prolyl tRNA synthetase was subcloned; 6xHis (N, cleaved yes); made in house; host or cells: E. coli BL21 (DE3)
PROTOCOL_TEXT: Assay for inhibitors of prolyl tRNA synthetase activity (ProRS assay, labeled proline incorporation)
Assay type: biochemical
SETTINGS: human ProRS 20 nM, 10 min at 37° C.; read-out: EPRS IC50
Counter-ions that a name gives are not always drawn.
When answering, recall that pIC50 equals minus log10 of the concentration in mol/L, and write that number alone.

Example results:
| MOLECULE | REPORTED_MEASUREMENT |
| --- | --- |
| Cc1cc(C2CC2)cc2c(=O)n(C[C@@H](O)C[C@H]3NCCC[C@@H]3O)cnc12 [Example 46, hydrochloride] | 7.47 |
| Cc1cc(-c2cscn2)cc2c(=O)n(C[C@@H](O)C[C@H]3NCCC[C@@H]3O)cnc12 [Example 66, hydrochloride] | 7.89 |
| Cc1cc(N2CCCC2)cc2c(=O)n(CC(=O)C[C@H]3NCCC[C@@H]3O)cnc12 [Example 24, dihydrochloride] | 7.85 |

Turning now to a further record.
Given the entry COc1ccc2c(=O)n(CC(=O)C[C@H]3NCCC[C@@H]3O)cnc2c1C [Example 4, hydrochloride] , report its measured pIC50.
7.31

---

TARGET_OF_ASSAY: human ProRS (prolyl tRNA synthetase moiety of glutamyl prolyl tRNA synthetase, EPRS) (Homo sapiens)
Construct: The prolyl tRNA synthetase moiety (ProRS) in the cDNA of glutamyl prolyl tRNA synthetase was subcloned; 6xHis (N, cleaved yes); made in house; host or cells: E. coli BL21 (DE3)
PROTOCOL_TEXT: Assay for inhibitors of prolyl tRNA synthetase activity (ProRS assay, labeled proline incorporation)
Format: biochemical
SETTINGS: human ProRS 20 nM, 10 min at 37° C.; read-out: EPRS IC50
Where a name gives a salt, the structure may show the parent alone.
VALUE_KIND: pIC50
API: returns pIC50 as number; meaning -log10 of concentration in mol/L.

Solved entries (count: 4):
| MOLECULE | pIC50 |
| --- | --- |
| Cc1c(Cl)ccc2c(=O)n(C[C@@H](O)C[C@H]3NCCC[C@@H]3O)cnc12 [Example 36, hydrochloride] | 6.37 |
| Cc1cc(-c2cccc(F)c2)cc2c(=O)n(C[C@@H](O)C[C@H]3NCCC[C@@H]3O)cnc12 [Example 53, hydrochloride] | 8.05 |
| O=c1c2cc(-c3cccc(C(F)(F)F)c3)ccc2ncn1C[C@@H](O)C[C@H]1NCCC[C@@H]1O [Example 52, hydrochloride] | 7.40 |
| Cc1cc(-c2ccc(F)c(F)c2)cc2c(=O)n(C[C@@H](O)C[C@H]3NCCC[C@@H]3O)cnc12 [Example 56, hydrochloride] | 8.40 |

// returns reported pIC50 for input Cc1cc(C(F)(F)F)cc2c(=O)n(CC(=O)C[C@H]3NCCC[C@@H]3O)cnc12 [Example 9, hydrochloride]
8.15

Dear colleague, I am looking for the recorded pIC50 of the following molecule: Cc1cc(C2CC2)cc2c(=O)n(CC(=O)C[C@H]3NCCC[C@@H]3O)cnc12 [Example 11, hydrochloride]
8.22

Return reported pIC50; argument: Cc1cc(-c2cccnc2)cc2c(=O)n(C[C@@H](O)C[C@H]3NCCC[C@@H]3O)cnc12 [Example 55, dihydrochloride]
7.96
